# testTarget: Phospho-EGFR (Tyr1068) in H1975 cells (Homo sapiens, UniProt P00533, L858R/T790M)
# Sequence (P00533 25-1210 T790M/L858R): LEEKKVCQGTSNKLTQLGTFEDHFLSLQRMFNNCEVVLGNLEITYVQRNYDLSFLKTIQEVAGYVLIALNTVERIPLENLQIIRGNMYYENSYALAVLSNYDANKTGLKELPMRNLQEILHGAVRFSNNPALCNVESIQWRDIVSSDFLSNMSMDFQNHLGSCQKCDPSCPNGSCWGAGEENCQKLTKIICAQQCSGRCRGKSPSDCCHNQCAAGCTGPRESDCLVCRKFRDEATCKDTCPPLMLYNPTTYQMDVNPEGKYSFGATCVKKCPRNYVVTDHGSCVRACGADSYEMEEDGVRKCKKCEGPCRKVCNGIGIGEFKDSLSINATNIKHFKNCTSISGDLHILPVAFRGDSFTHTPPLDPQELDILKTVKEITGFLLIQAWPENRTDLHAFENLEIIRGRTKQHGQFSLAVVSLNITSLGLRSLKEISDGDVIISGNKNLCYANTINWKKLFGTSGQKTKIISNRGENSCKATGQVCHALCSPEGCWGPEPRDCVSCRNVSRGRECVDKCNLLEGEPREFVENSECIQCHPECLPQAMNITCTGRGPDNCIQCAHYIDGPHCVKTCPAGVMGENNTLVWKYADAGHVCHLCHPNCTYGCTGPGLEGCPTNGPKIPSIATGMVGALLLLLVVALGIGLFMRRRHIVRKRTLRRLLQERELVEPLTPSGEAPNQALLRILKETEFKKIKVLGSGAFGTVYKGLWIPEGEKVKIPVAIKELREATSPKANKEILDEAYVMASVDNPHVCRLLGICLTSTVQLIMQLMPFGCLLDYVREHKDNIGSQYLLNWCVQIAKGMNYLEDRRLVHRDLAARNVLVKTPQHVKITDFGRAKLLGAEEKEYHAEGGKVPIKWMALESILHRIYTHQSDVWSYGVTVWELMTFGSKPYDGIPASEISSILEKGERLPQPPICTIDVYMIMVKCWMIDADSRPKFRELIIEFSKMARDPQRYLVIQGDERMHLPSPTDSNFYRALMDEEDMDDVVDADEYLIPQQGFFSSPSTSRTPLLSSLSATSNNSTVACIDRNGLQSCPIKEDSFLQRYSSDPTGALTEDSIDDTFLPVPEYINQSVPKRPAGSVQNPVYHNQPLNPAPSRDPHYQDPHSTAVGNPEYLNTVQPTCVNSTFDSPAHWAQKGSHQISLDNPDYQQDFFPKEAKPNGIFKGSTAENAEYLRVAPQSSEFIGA
# assayProtocol: HTRF pEGFR/total EGFR assay in H1975 cells
# recordedConditions: compound 3 hours, ratio pEGFR/total EGFR
// values below are reported IC50

Example cases with answers are listed next.
[[record]]
molecule = "C#Cc1cc(NC(=O)N2CCCC2)nc2nc(Nc3ccc(N4CCN(C)CC4)cc3)ncc12 [Example 56]"
result = "1000 to 3000 nM"

[[record]]
molecule = "C#Cc1cc(N2C(=O)N(C)CC23CCCC3)nc2nc(Nc3ccc(S(=O)(=O)N(C)CCN(C)C)cc3)ncc12 [Example 110]"
result = "> 3000 nM"

[[record]]
molecule = "C#Cc1cc(N2C(=O)OCC2C2CCCC2)nc2nc(Nc3ccc(N4CCN(C)CC4)cc3)ncc12 (stereo not shown) [Example 111]"
result = "500 to 1000 nM"

[[record]]
molecule = "C#Cc1cc(N2C(=O)OC[C@@H]2C(C)C)nc2nc(Nc3ccc(N4CCN(C)CC4)cc3)ncc12 [Example 70]"
result = "500 to 1000 nM"

[[record]]
molecule = "C#Cc1cc(NC(=O)NCC2CCOC2)nc2nc(Nc3ccc(N4CCN(C)CC4)cc3)ncc12 (stereo not shown) [Example 51]"
result = "< 500 nM"


IC50 for C#Cc1cc(NC(=O)CCc2ccccc2)nc2nc(Nc3ccc(N4CCN(C)CC4)cc3)ncc12 [Example 32] ?
1000 to 3000 nM

Now the molecule C#Cc1cc(NC(=O)NC2CCCC2)nc2nc(Nc3cccc(N(C)[C@H]4C[C@H](CS(C)(=O)=O)C4)c3)ncc12 [Example 122]
< 500 nM
